Cited source: PubChem BioAssay (NCI)

# System: CAKI-1 renal
# procedure details: NCI tumour cell line growth inhibition, 48 h
Here the recorded TGI is given for each entry.

# compound, study system, TGI
data = [
    ("N#C/C(=C\\c1cccc(O)c1O)C(N)=O", "CAKI-1 renal", "> 100 µM"),
    ("Nc1cccc(S(=O)(=O)Nc2nnc(S(N)(=O)=O)s2)c1", "CAKI-1 renal", "> 100 µM"),
    ("Cc1nc2n(c1/C=C1/C(=O)Nc3ccccc31)CCS2", "CAKI-1 renal", "> 100 µM"),
    ("O=NN(CCF)C(=O)NC1CC2CCC1C2 (configuration not stated)", "CAKI-1 renal", "> 100 µM"),
    ("O=C1C2=C(C(=O)c3cnccc31)C1C=CC2CC1 (configuration not stated)", "CAKI-1 renal", "9.33 µM"),
    ("O=Nn1c2ccccc2c2cc([N+](=O)[O-])ccc21", "CAKI-1 renal", "31.6 µM"),
    ("COc1ccc(OC(C(=O)O)C(C)C)c2c1CCCC2=O (configuration not stated)", "CAKI-1 renal", "> 100 µM"),
    ("Cc1ccc(NC2=NCCO2)c2c1CCC2", "CAKI-1 renal", "> 100 µM"),
    ("Cc1ccc(S(=O)(=O)[C@@H](Cl)[C@H]2N=C(Cl)NN=C2c2ccccc2)cc1", "CAKI-1 renal", "> 100 µM"),
    ("CCOC(=O)C(C)Sc1nnc(COc2ccccc2OC)n1-c1ccccc1 (configuration not stated)", "CAKI-1 renal", "> 100 µM"),
    ("CCOc1ccc2c(c1)C(=O)c1c-2n(CCCBr)c(=O)c2cc([N+](=O)[O-])ccc12", "CAKI-1 renal", "> 100 µM"),
    ("COC(=O)C1C(=O)CC2CCCCC21 (configuration not stated)", "CAKI-1 renal", "> 100 µM"),
]

###

# Tested on: HL-60(TB) leukemia
# procedure details: NCI tumour cell line growth inhibition, 48 h; in the data active means GI50 below about 0.43 µM; inactive means the rest
Outcomes: active, inactive

# structure notation, category label
rows = [
    ("CC[C@@]1(OC(=O)CN)C(=O)OCc2c1cc1n(c2=O)Cc2c-1nc1cc3c(cc1c2CCl)OCO3", "active"),
    ("NS(=O)(=O)c1ccc(N=Nc2c(O)[nH]c3ccc(C(=O)NCc4ccncc4)cc23)cc1", "inactive"),
    ("Cc1ccc2nc(-c3ccc(OCC(=O)N=Nc4c(O)[nH]c5ccccc45)cc3)[nH]c2c1", "inactive"),
    ("CCN(Cc1cc(F)ccc1F)c1ccc(CO)c(Cl)c1", "inactive"),
    ("COc1cccc(CN(C)c2ccc(CO)c(Cl)c2)c1", "inactive"),
]

###

Here the recorded GI50 is given for each entry.
# Tested on: OVCAR-8 ovarian
# procedure details: NCI tumour cell line growth inhibition, 48 h
measured parameter: GI50

# compound, measured parameter, measured result
records = [
    ("Cc1cc(Nc2nc(C(=O)Nc3ccccc3)nc3ccccc23)n[nH]1", "GI50", "14500 nM"),
    ("CCCCCCCC(=O)OCCCC1[C@]2(C)CC[C@@]3(C)C([C@H](C)CCC=C(C)C)CC[C@]3(C)C2CC[C@]12OC2(C)C (stereo partly specified)", "GI50", "64000 nM"),
    ("NCCCCC1NC(=O)C(CC(=O)O)NC(=O)CNC(=O)C(CCCN=C(N)N)NC(=O)C(N)CSSCC(C(=O)O)NC(=O)C(CC(=O)O)NC(=O)C2CCCN2C(=O)CNC1=O (stereo unspecified)", "GI50", "> 100000 nM"),
    ("CN(Cc1ccc(C(F)(F)F)cc1)CC(O)C(=O)Nc1ccc(Cl)cc1 (stereo unspecified)", "GI50", "1800 nM"),
    ("NC(=O)[C@@H](CC1CC1)[C@@H](CCC(F)(F)F)C(=O)N[C@H]1N=C(c2ccccc2)c2cccc(F)c2NC1=O", "GI50", "> 100000 nM"),
    ("CCN1CCN(Cc2ccc(NC(=O)Nc3nc4ccc(Oc5ccnc(C(=O)NC)c5)cc4s3)cc2C(F)(F)F)CC1", "GI50", "2110 nM"),
    ("CN(C)CCNC(=O)c1ccc(-c2nc3ccc4[nH]ncc4c3c3c2C2CCC3C2)cc1 (stereo unspecified)", "GI50", "1400 nM"),
    ("O=C(Nc1ccc(-n2ccc3c(NC(=O)c4ccccc4)ncnc32)cc1)c1cccc(C(F)(F)F)c1", "GI50", "1160 nM"),
    ("c1cc(-c2nnc(SSc3ncnc4nc[nH]c34)o2)ccn1", "GI50", "3260 nM"),
    ("C=C/C(C)=C/C[C@]1(C)[C@H](C)[C@@H](OC(=O)CCC)[C@H](O)[C@@]23C(=C[C@H](OC)C[C@@H]12)[C@@H](OC(=O)CCC)O[C@H]3OC(C)=O", "GI50", "447 nM"),
    ("CSc1ncc(Br)c(Sc2nc(N)nc3nc[nH]c23)n1", "GI50", "3780 nM"),
]

###

# System: A498 renal
# procedure details: NCI tumour cell line growth inhibition, 48 h

# compound, TGI
rows = [
    ("O=c1c2ccccc2nc(-c2ccccc2)n1NC(=S)Nc1ccc(Cl)cc1", "> 100 µM"),
    ("CS[C@]12[C@@H]3C(=O)N(C)C(=O)[C@@H]3[C@](C)(C(=O)N1C)C(=O)N2c1ccccc1", "> 100 µM"),
    ("O=S1(=O)N(Cc2ccccc2)[C@@H](Cc2ccccc2)[C@H](O)[C@H](O)[C@H](Cc2ccccc2)N1Cc1ccccc1", "5.18 µM"),
    ("CCCCCCCCCC(=O)N[C@@H](c1ccco1)[C@@H](O)C(=O)O[C@H]1C[C@@]2(O)[C@@H](OC(=O)c3ccccc3)[C@@H]3[C@]4(OC(C)=O)CO[C@@H]4C[C@H](O)[C@@]3(C)C(=O)[C@H](OC(C)=O)C(=C1C)C2(C)C", "10.3 µM"),
    ("[O-][n+]1c(CN2CCCCC2)nc2cccc3c2c1-c1ccccc1-3", "38.3 µM"),
    ("CCOC(=O)NNC(=O)NCc1ccccc1CNC(=O)NNC(=O)OCC", "> 100 µM"),
    ("CC(C)(C)C(=O)OCC1OC(N=[N+]=[N-])C(OC(=O)C(C)(C)C)C(OC(=O)C(C)(C)C)C1OC(=O)C(C)(C)C (stereo unspecified)", "> 100 µM"),
    ("CCCCCCCC(=O)OCCCC1[C@]2(C)CC[C@@]3(C)C([C@H](C)CCC=C(C)C)CC[C@]3(C)C2CC[C@]12OC2(C)C (stereo partly specified)", "> 100 µM"),
    ("Cc1cc(Cl)ccc1OCC(=O)Nc1nc(N)nc(N)n1", "> 100 µM"),
    ("C1=C/COCc2cc(ccc2OCCN2CCCC2)Nc2nccc(n2)-c2ccc(o2)COC/1", "3.57 µM"),
    ("c1cc(-c2nnc(SSc3ncnc4nc[nH]c34)o2)ccn1", "> 100 µM"),
]

###

Here the recorded TGI is given for each entry.
# Test system: SF-295 CNS
# procedure details: NCI tumour cell line growth inhibition, 48 h
Where a SMILES comes first, the peptide text is derived from it. [ ]: non-standard residue; d: D form. The star is where a group is joined. Bn2Val = CC(C)[C@@H](C(=O)*)N(Cc1ccccc1)Cc1ccccc1; NMeV = CN[C@H](C(=O)O)C(C)C; X29 = COc1ccc(CN*)c(OC)c1; dNMeA = CN[C@H](C)C(=O)O
measured parameter: TGI

# molecule, study system, measured result
records = [
    ("[O-][n+]1c(CN2CCCCC2)nc2cccc3c2c1-c1ccccc1-3", "SF-295 CNS", "84 µM"),
    ("COC(=O)[C@@](C)(COC(=O)C(C)(C)C)NC(=O)OC(C)(C)C", "SF-295 CNS", "> 100 µM"),
    ("COc1ccc2nc3c(c(NCCCN(C)C)c2c1)CCCC3", "SF-295 CNS", "29 µM"),
    ("O=[N+]([O-])c1nccn1CC(O)CN1CCCCC1 (centres undefined)", "SF-295 CNS", "> 100 µM"),
    ("COC(=O)C1=C(CS(=O)c2ccc([N+](=O)[O-])cc2[N+](=O)[O-])C2C=CC1C2 (centres undefined)", "SF-295 CNS", "> 100 µM"),
    ("COc1ccccc1N=Nc1c(O)c(S(=O)(=O)O)cc2cc(S(=O)(=O)O)ccc12", "SF-295 CNS", "> 100 µM"),
    ("O=C1C=C2CCC[C@H]3OC(=O)C[C@@]23CC1", "SF-295 CNS", "> 100 µM"),
    ("CNNC(=N\\S(=O)(=O)c1cc(C)c(Cl)cc1SCc1ccccc1)/N=C/c1ccc([N+](=O)[O-])s1", "SF-295 CNS", "> 100 µM"),
    ("CCCCCN(CCCCC)CC(O)c1cc(Cl)ccc1OC (centres undefined)", "SF-295 CNS", "12.6 µM"),
    ("Cc1cccc2nc3c(=O)[nH]c(=O)nc-3n(C)c12", "SF-295 CNS", "> 100 µM"),
    ("COc1ccc(CNC(=O)[C@@H]2CCCN2C(=O)[C@@H](C)N(C)C(=O)[C@H](C(C)C)N(C)C(=O)[C@@H](NC(=O)[C@H](C(C)C)N(Cc2ccccc2)Cc2ccccc2)C(C)C)c(OC)c1 (Bn2Val-V[NMeV][dNMeA]P-X29)", "SF-295 CNS", "10.7 µM"),
    ("CCOC(=O)C(NC(=O)CC)(Nc1ccc(S(=O)(=O)Nc2onc(C)c2C)cc1)C(F)(F)F (centres undefined)", "SF-295 CNS", "> 100 µM"),
    ("Cc1ccc(S(=O)(=O)[C@@H](Cl)[C@H]2N=C(Cl)NN=C2c2ccccc2)cc1", "SF-295 CNS", "> 100 µM"),
    ("CC12CCCCC1=[N+]([O-])C(C)(C)N2O (centres undefined)", "SF-295 CNS", "> 100 µM"),
    ("CCc1cccc(C)c1N1C(=O)C(=O)C(c2nc3ccccc3o2)C(=O)C1=O", "SF-295 CNS", "> 100 µM"),
    ("C1=C/COCc2cc(ccc2OCCN2CCCC2)Nc2nccc(n2)-c2ccc(o2)COC/1", "SF-295 CNS", "8.02 µM"),
    ("COC(=O)C(=O)C(C(=O)C(=O)Nc1cccc([N+](=O)[O-])c1)c1nc2ccc(Cl)cc2[nH]c1=O (centres undefined)", "SF-295 CNS", "> 100 µM"),
    ("C=C(C)C1CC/C(C)=C/CC[C@]2(C)O[C@@H]2CCC2=CC1OC2=O (some centres undefined)", "SF-295 CNS", "> 100 µM"),
    ("Cc1cc(C)nc(/C(=N\\NC(N)=O)C(=O)Nc2nc3ccc(C)cc3s2)c1", "SF-295 CNS", "> 100 µM"),
]
